- test.method.notes: Clearance in CD rat at 1 mg/kg, iv measured for 24 hrs by LC-MS/MS analysis
- Format: ADME, organism-based
- reported.conditions: in vivo
reported.endpoint: clearance (mL/min/kg)

The following compounds have reported results that may help.
[
  {
    "item.smiles": "C#C[C@@]1(O)[C@@H](COC(Cc2ccccc2)(C(=O)O)C(=O)O)O[C@@H](n2cnc3c(N4CC(O)C4)nc(Cl)nc32)[C@@H]1O",
    "reported.endpoint": "clearance",
    "scale.unit": "mL/min/kg",
    "reported.result": 17
  },
  {
    "item.smiles": "C#C[C@@]1(O)[C@@H](COC(Cc2ccccc2)(C(=O)O)C(=O)O)O[C@@H](n2cnc3c(NC)nc(Cl)nc32)[C@@H]1O",
    "reported.endpoint": "clearance",
    "scale.unit": "mL/min/kg",
    "reported.result": 10
  },
  {
    "item.smiles": "C#C[C@@]1(O)[C@@H](COC(Cc2ccccc2)(C(=O)O)C(=O)O)O[C@@H](n2cnc3c(NCC)nc(Cl)nc32)[C@@H]1O",
    "reported.endpoint": "clearance",
    "scale.unit": "mL/min/kg",
    "reported.result": 7.8
  }
]

P = C#C[C@@]1(O)[C@@H](COC(Cc2ccccc2)(C(=O)O)C(=O)O)O[C@@H](n2cnc3c(N[C@@H](C)c4ccccc4)nc(Cl)nc32)[C@@H]1O
Q = Nc1nc(Cl)nc2c1ncn2[C@@H]1O[C@H](COC(Cc2ccccc2)(C(=O)O)C(=O)O)[C@](O)(C#CC2CC2)[C@H]1O
R = Nc1nc(Cl)nc2c1ncn2[C@@H]1O[C@H](COC(Cc2ccccc2)(C(=O)O)C(=O)O)[C@@H](O)[C@H]1O
S = C#C[C@@]1(O)[C@@H](COC(Cc2ccccc2)(C(=O)O)C(=O)O)O[C@@H](n2cnc3c(N(C)C)cc(Cl)nc32)[C@@H]1O
Arrange the 4 compounds from largest to smallest clearance. List labels; respect the requested ordering. Q, R, P, S
(Q: 54 mL/min/kg, R: 20.4 mL/min/kg, P: 9.2 mL/min/kg, S: 5.9 mL/min/kg)
